Subject Of Test: Apoptosis regulator Bcl-2 (Homo sapiens)
Measured Endpoint: Ki (µM)

(1) CC(O)(c1ccc(Cl)cc1)c1ccc(Cl)c(CCOc2ccc(-c3ccc(C(=O)O)cc3)cc2)c1 (stereo unspecified)
(2) CN(C)CCCC(O)(c1ccccc1)c1cccc(CCOc2ccc(-c3ccc(C(=O)O)cc3)cc2)c1 (stereo unspecified)
(3) CN(C)CCCC(O)(c1ccccc1)c1ccc(OCCc2cccc(-c3ccc(C(=O)O)cc3)c2)cc1 (stereo unspecified)
(4) CN(C)CCCC(O)(c1ccccc1)c1ccc(OCCc2ccc(-c3ccc(C(=O)O)cc3)cc2)cc1 (stereo unspecified)
(5) CN(C)CCCC(O)(c1ccccc1)c1cccc(OCCc2cccc(-c3ccc(C(=O)O)cc3)c2)c1 (stereo unspecified)
Q) Lab note: order the above by reported Ki, lowest first, highest last. // format: requested-order list of labels
A) 1, 2, 5, 3, 4

====

Subject Of Test: Apoptosis regulator Bcl-2 (Homo sapiens, UniProt P10415)
Sequence (P10415 whole entry): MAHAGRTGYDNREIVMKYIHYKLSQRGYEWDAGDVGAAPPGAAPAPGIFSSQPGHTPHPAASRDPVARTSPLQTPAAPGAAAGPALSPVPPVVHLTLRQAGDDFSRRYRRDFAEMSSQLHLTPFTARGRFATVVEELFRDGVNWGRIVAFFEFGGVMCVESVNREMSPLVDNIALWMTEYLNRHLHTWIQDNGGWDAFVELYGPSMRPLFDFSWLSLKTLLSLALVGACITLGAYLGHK
pKi: −log10 of the molar value.
Measured Endpoint: pKi

(a) O=C(O)c1ccc(-c2ccc(OCCc3cc(C(O)(CCN4CCOCC4)c4ccc(Br)cc4)ccc3Cl)cc2)cc1 (centres undefined)
(b) CN(C)CCCC(O)(c1ccccc1)c1ccc(OCc2ccc(-c3ccc(C(=O)O)cc3)cc2)cc1 (centres undefined)
(c) CN(C)CCCC(O)(c1ccccc1)c1cccc(OCCc2ccc(-c3ccc(C(=O)O)cc3)cc2)c1 (centres undefined)
Q) Lab note: order the above by reported pKi, lowest first, highest last. // format: requested-order list of labels
A) b, c, a

====

Subject Of Test: Apoptosis regulator Bcl-2 (Homo sapiens, UniProt P10415)
Assay Method Text: Binding affinity to Bcl-2 by NMR titration assay
Measured Endpoint: Kd (µM)

Worked examples follow.
> print(dat)
                                 compound  experimental.value
1           CCc1ccc(-c2ccc(C(=O)O)cc2)cc1                 300
2           CCc1cccc(-c2ccc(C(=O)O)cc2)c1                 100
3  CN(C)CCC[C@@](O)(c1ccccc1)c1ccc(Cl)cc1                  80
4          CN(C)CCCC(O)(c1ccccc1)c1ccccc1                 200
5        NC[C@](O)(c1ccccc1)c1ccc(F)cc1Cl                 250

(a) CN1CCN(C(c2ccccc2)c2ccc(Cl)cc2)CC1 (stereo not drawn)
(b) CN(C)CCCC(O)(c1ccc(Cl)cc1)c1ccc(Cl)cc1
Q) Higher Kd: a or b ? Please identify the chosen entry by its label.
A) a
(a: 60 µM, b: 20 µM)

====

Subject Of Test: Apoptosis regulator Bcl-2 (Homo sapiens, UniProt P10415)
Assay Method Text: Binding affinity to Bcl-2 by NMR titration assay in presence of 500 uM 1,1-bis(4-chlorophenyl)-3-(dimethylamino)propan-1-ol
pKd: −log10 of the molar value.
Measured Endpoint: pKd

(I) CCc1cccc(-c2ccc(C(=O)O)cc2)c1
(II) O=C(O)c1ccc(-c2ccc(F)cc2)cc1
Q) For I and II , which recorded pKd is lower? Please identify the chosen entry by its label.
A) II
(II: 3.37, I: 4.70)
